target: HLA-A*03:01 (Homo sapiens, UniProt P04439); experiment: MHC binding assay, UV-ligand exchange ELISA; settings: peptide exchange yield, binding to HLA-A*03:01
property.label: Peptide exchange

substance	system.under.test	measured.result
193 (ILQLITVNR; listed as Homo sapiens) [compound 193]	HLA-A*03:01 (Homo sapiens, UniProt P04439)	+++ (≥50% = +++)
72 (GSCSFALSR; listed as Homo sapiens) [compound 72]	HLA-A*03:01 (Homo sapiens, UniProt P04439)	++++ (≥75% = ++++)
28 (ATLQAVTLYKK; listed as Homo sapiens) [compound 28]	HLA-A*03:01 (Homo sapiens, UniProt P04439)	++++ (≥75% = ++++)
174 (LSGPVTFLR; listed as Homo sapiens) [compound 174]	HLA-A*03:01 (Homo sapiens, UniProt P04439)	+++ (≥50% = +++)
161 (ILAASFQAR; listed as Homo sapiens) [compound 161]	HLA-A*03:01 (Homo sapiens, UniProt P04439)	+++ (≥50% = +++)
50 (KTIDLVIVR; listed as Homo sapiens) [compound 50]	HLA-A*03:01 (Homo sapiens, UniProt P04439)	++++ (≥75% = ++++)
44 (SLFPYFLNK; listed as Homo sapiens) [compound 44]	HLA-A*03:01 (Homo sapiens, UniProt P04439)	++++ (≥75% = ++++)
112 (ETYGTFVLR; listed as Homo sapiens) [compound 112]	HLA-A*03:01 (Homo sapiens, UniProt P04439)	+++ (≥50% = +++)
53 (TTLENLPQK; listed as Homo sapiens) [compound 53]	HLA-A*03:01 (Homo sapiens, UniProt P04439)	+++ (≥50% = +++)
198 (MTYQQPFSNR; listed as Homo sapiens) [compound 198]	HLA-A*03:01 (Homo sapiens, UniProt P04439)	++++ (≥75% = ++++)
154 (TVTSAIVNR; listed as Homo sapiens) [compound 154]	HLA-A*03:01 (Homo sapiens, UniProt P04439)	+++ (≥50% = +++)
179 (MIFSGVFLR; listed as Homo sapiens) [compound 179]	HLA-A*03:01 (Homo sapiens, UniProt P04439)	++++ (≥75% = ++++)
38 (AVVSHFILY; listed as Homo sapiens) [compound 38]	HLA-A*03:01 (Homo sapiens, UniProt P04439)	+++ (≥50% = +++)
104 (GSLQTLPPK; listed as Homo sapiens) [compound 104]	HLA-A*03:01 (Homo sapiens, UniProt P04439)	+++ (≥50% = +++)
178 (SLFGGLFTR; listed as Homo sapiens) [compound 178]	HLA-A*03:01 (Homo sapiens, UniProt P04439)	++++ (≥75% = ++++)
152 (KIMEILNLK; listed as Homo sapiens) [compound 152]	HLA-A*03:01 (Homo sapiens, UniProt P04439)	++++ (≥75% = ++++)
209 (AILLPQLPK; listed as Homo sapiens) [compound 209]	HLA-A*03:01 (Homo sapiens, UniProt P04439)	++++ (≥75% = ++++)
91 (RIVTYIVAK; listed as Homo sapiens) [compound 91]	HLA-A*03:01 (Homo sapiens, UniProt P04439)	+++ (≥50% = +++)
150 (IVFLLQQGEK; listed as Homo sapiens) [compound 150]	HLA-A*03:01 (Homo sapiens, UniProt P04439)	+++ (≥50% = +++)
24 (LIYIPTNSIYK; listed as Homo sapiens) [compound 24]	HLA-A*03:01 (Homo sapiens, UniProt P04439)	++++ (≥75% = ++++)
148 (SVYMATTLK; listed as Homo sapiens) [compound 148]	HLA-A*03:01 (Homo sapiens, UniProt P04439)	++++ (≥75% = ++++)
143 (AVLGALLRH; listed as Homo sapiens) [compound 143]	HLA-A*03:01 (Homo sapiens, UniProt P04439)	++++ (≥75% = ++++)
127 (TVATQVATSK; listed as Homo sapiens) [compound 127]	HLA-A*03:01 (Homo sapiens, UniProt P04439)	+++ (≥50% = +++)
159 (ASAIPAGAK; listed as Homo sapiens) [compound 159]	HLA-A*03:01 (Homo sapiens, UniProt P04439)	+++ (≥50% = +++)
81 (KLIAGLIFLK; listed as Homo sapiens) [compound 81]	HLA-A*03:01 (Homo sapiens, UniProt P04439)	+++ (≥50% = +++)
138 (RTLPLEGSPK; listed as Homo sapiens) [compound 138]	HLA-A*03:01 (Homo sapiens, UniProt P04439)	+++ (≥50% = +++)
146 (KVLVDFLLK; listed as Homo sapiens) [compound 146]	HLA-A*03:01 (Homo sapiens, UniProt P04439)	+++ (≥50% = +++)
204 (VVRASSGLK; listed as Homo sapiens) [compound 204]	HLA-A*03:01 (Homo sapiens, UniProt P04439)	+++ (≥50% = +++)
107 (SVISVLTTPK; listed as Homo sapiens) [compound 107]	HLA-A*03:01 (Homo sapiens, UniProt P04439)	++++ (≥75% = ++++)
202 (KLLLLSSVK; listed as Homo sapiens) [compound 202]	HLA-A*03:01 (Homo sapiens, UniProt P04439)	+++ (≥50% = +++)
90 (LALLGAPPPK; listed as Homo sapiens) [compound 90]	HLA-A*03:01 (Homo sapiens, UniProt P04439)	++ (≥20% = ++)
25 (GVCSTLTIK; listed as Homo sapiens) [compound 25]	HLA-A*03:01 (Homo sapiens, UniProt P04439)	++++ (≥75% = ++++)
29 (GTFIAPVMK; listed as Homo sapiens) [compound 29]	HLA-A*03:01 (Homo sapiens, UniProt P04439)	++++ (≥75% = ++++)
2 (GTVFVLLSK; listed as Homo sapiens) [compound 2]	HLA-A*03:01 (Homo sapiens, UniProt P04439)	++ (≥20% = ++)
151 (AVFVNWEQTKK; listed as Homo sapiens) [compound 151]	HLA-A*03:01 (Homo sapiens, UniProt P04439)	++++ (≥75% = ++++)
149 (SMNSKALRWK; listed as Homo sapiens) [compound 149]	HLA-A*03:01 (Homo sapiens, UniProt P04439)	+++ (≥50% = +++)
20 (ILAPPAILK; listed as Homo sapiens) [compound 20]	HLA-A*03:01 (Homo sapiens, UniProt P04439)	++++ (≥75% = ++++)
19 (RILEVVRQPK; listed as Homo sapiens) [compound 19]	HLA-A*03:01 (Homo sapiens, UniProt P04439)	++++ (≥75% = ++++)
22 (RVIEVVMNSK; listed as Homo sapiens) [compound 22]	HLA-A*03:01 (Homo sapiens, UniProt P04439)	++++ (≥75% = ++++)
